Measured values drawn from patent US9353082B2 for this set.

- Assay target: FAAH (Mus musculus)
- Construct: A fragment of liver, left lung lobe and brain without cerebellum were removed; from tissue; host or cells: male NMRI mice; brain (without cerebellum) and liver homogenates
- Assay explanation: In vivo FAAH inhibition after oral dosing, remaining activity in brain homogenate (BRh, central nervous tissue)
- Set-up: species or system NMRI mice
- Cond: brain homogenate, 3 mg/kg, 8 h after dosing; low value = strong inhibitor
In this section, each of the compounds is paired with its reported In Vivo BRh 3 mg·kg 8 h (remaining FAAH activity, % of control).
Recorded metric: In Vivo BRh 3 mg·kg 8 h (remaining FAAH activity, % of control)

smiles_entry=CC1(C)COCN1C(=O)n1cnc(-c2ccccc2)c1Cl result="77.9 % of control"
smiles_entry=CN(C)c1ccc(-c2cn(C(=O)N(C)C3CCCCC3)cn2)cc1[N+](=O)[O-] result="4.3 % of control"
smiles_entry=COc1ccc(-c2cn(C(=O)N(C)C3CCCCC3)cn2)cc1C(N)=O result="83.2 % of control"
smiles_entry=CN(C(=O)n1cnc(-c2ccccc2)c1)C1CCN(Cc2ccccc2)CC1 result="0.5 % of control"
smiles_entry=CN(C(=O)n1cnc(-c2ccc(OC(F)F)cc2)c1)C1CCCCC1 result="1.4 % of control"
smiles_entry=CN(C(=O)n1cnc(-c2cccnc2)c1)C12CC3CC(CC(C3)C1)C2 result="113.2 % of control"
smiles_entry=CN(C(=O)n1cnc(-c2ccc(/C(N)=N/O)cc2)c1)C1CCCCC1 result="66.8 % of control"
smiles_entry=CN(C(=O)n1cnc(-c2cccc(C(=O)NO)c2)c1)C1CCCCC1 result="1 % of control"
smiles_entry=CN(C(=O)n1cnc(-c2ccc(F)c(O)c2)c1)C1CCCC1 result="121.1 % of control"
smiles_entry=COc1cccc(-c2cn(C(=O)N3COCC3(C)C)cn2)c1 result="83.3 % of control"
smiles_entry=CC1(C)COCN1C(=O)n1cnc(-c2ccc(O)c(F)c2)c1 result="60 % of control"
smiles_entry=CN(C(=O)n1cnc(-c2ccc(O)c(F)c2)c1)C1CCCC1 result="4 % of control"
smiles_entry=CN(C(=O)n1cnc(-c2ccc(F)cc2)c1)C1CCCCC1 result="3.4 % of control"
smiles_entry=COc1ccc(-c2cn(C(=O)N(C)C3CCOCC3)cn2)cc1N result="4.7 % of control"
smiles_entry=CN(C(=O)n1cnc(-c2ccc(S(=O)(=O)N3CCC(OCc4ccccc4)CC3)cc2)c1)C1CCCCC1 result="109.1 % of control"
smiles_entry=CN(C(=O)n1cnc(-c2ccc(S(=O)(=O)N3CCC(O)CC3)cc2)c1)C1CCCCC1 result="96.1 % of control"
smiles_entry=COc1ccc(-c2cn(C(=O)N(C)C3CCCCC3)cn2)cc1-c1nn[nH]n1 result="92.4 % of control"
smiles_entry=CN(C(=O)n1cnc(-c2ccc(O)c(N)c2)c1)C1CCCCC1.Cl result="111.9 % of control"

---

- Assay target: FAAH (Mus musculus, UniProt O08914)
- Construct: A fragment of liver, left lung lobe and brain without cerebellum were removed; from tissue; host or cells: male NMRI mice; brain (without cerebellum) and liver homogenates
- Sequence (O08914 whole entry, the tested form may be a part): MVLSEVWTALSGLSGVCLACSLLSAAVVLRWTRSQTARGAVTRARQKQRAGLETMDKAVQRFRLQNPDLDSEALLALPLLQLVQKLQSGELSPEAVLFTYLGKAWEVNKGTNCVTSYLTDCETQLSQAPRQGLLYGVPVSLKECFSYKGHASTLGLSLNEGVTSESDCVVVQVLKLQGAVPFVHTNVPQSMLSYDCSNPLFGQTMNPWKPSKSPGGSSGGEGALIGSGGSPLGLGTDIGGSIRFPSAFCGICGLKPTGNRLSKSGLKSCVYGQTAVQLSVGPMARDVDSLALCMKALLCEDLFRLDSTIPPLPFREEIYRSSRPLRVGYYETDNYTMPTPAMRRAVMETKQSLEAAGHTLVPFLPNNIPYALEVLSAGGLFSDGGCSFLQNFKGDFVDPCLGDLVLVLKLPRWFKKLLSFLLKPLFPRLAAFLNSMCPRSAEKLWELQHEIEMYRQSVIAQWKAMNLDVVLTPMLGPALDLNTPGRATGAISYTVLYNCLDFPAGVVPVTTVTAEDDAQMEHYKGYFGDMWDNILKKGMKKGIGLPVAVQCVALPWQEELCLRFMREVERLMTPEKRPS
- Assay explanation: In vivo FAAH inhibition after oral dosing, remaining activity in liver homogenate (LVh, peripheral tissue)
- Design: species or system NMRI mice
- Cond: liver homogenate, 30 mg/kg, 1 h
- Description: The in vivo test was performed according to the protocol described below. BRh indicates inhibition in central nervous tissue and LVh indicates inhibition in peripheral tissue, in this case liver. […] Total protein in tissues was determined with the BioRad Protein Assay (BioRad) using a standard curve of BSA (50-250 μg/ml). […] The percentage of remaining enzymatic activity was calculated in respect to controls and after blank subtraction.
Recorded metric: In Vivo LVh 30 mg/kg 1 h, remaining FAAH activity

compound="O=C(N1CCc2ccccc2C1)n1nnc2ccccc21 [Compound 50]" result="7.8 % of control"
compound="CN(C(=O)n1nnc2cc(Cl)ccc21)c1ccccc1 [Compound 33]" result="76.7 % of control"
compound="CN(C(=O)n1nnc2ccc(Cl)cc21)c1ccccc1 [Compound 32]" result="64.9 % of control"
compound="O=C(N1CCC2(CC1)OCCO2)n1nnc2ccccc21 [Compound 55]" result="2.5 % of control"
compound="O=C(N1CCOCC1)n1nnc2ccccc21 [Compound 19]" result="41.1 % of control"
compound="CN(C(=O)n1nnc2ccccc21)c1ccccc1 [Compound 34]" result="34.3 % of control"
compound="CN(C(=O)n1nnc2ccccc21)C1CCCCC1 [Compound 58]" result="0.9 % of control"
compound="CN(C(=O)n1nnc2ccccc21)c1ccc(Cl)cc1 [Compound 63]" result="49.7 % of control"
compound="O=C(N1CCN(c2ccccn2)CC1)n1nnc2ccccc21 [Compound 49]" result="14.9 % of control"
compound="CN(C(=O)n1cnc(-c2ccc(F)cc2)c1)c1ccccc1 [Compound 29]" result="17.2 % of control"
compound="O=C(N1CCC(Cc2ccccc2)CC1)n1nnc2ccccc21 [Compound 42]" result="6.4 % of control"
compound="CC1(C)COCN1C(=O)n1nnc2ccccc21 [Compound 71]" result="2.2 % of control"
